target: CHK2 (Homo sapiens, UniProt O96017); construct: made in house; experiment: CHK2 kinase activity assay (DELFIA, phosphorylation of a CDC25C peptide); type: biochemical; settings: following further studies; ATP 30 μM, CHK2 1 nM; read-out: IC50, inhibition of CHK2 kinase activity in vitro
Sequence (O96017 whole entry): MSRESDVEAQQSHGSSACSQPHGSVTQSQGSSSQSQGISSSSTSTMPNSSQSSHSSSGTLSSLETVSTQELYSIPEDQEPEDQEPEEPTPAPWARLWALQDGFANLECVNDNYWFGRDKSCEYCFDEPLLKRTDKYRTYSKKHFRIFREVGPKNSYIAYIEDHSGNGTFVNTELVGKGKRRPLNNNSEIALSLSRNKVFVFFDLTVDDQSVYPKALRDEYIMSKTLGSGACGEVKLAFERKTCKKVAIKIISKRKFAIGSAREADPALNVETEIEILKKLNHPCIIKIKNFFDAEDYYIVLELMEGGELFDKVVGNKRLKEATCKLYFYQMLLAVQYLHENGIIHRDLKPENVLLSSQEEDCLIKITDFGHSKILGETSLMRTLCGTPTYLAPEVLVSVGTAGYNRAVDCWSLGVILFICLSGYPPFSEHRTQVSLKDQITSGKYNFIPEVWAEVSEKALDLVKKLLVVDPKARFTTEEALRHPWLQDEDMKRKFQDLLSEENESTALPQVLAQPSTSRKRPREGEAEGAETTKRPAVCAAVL
Listed molecules paired with reported IC50

Consider Cn1cc(-c2ccc3c(N[C@H]4CCNC4)nc(-c4ccccc4O)nc3c2)cn1 [Compound A-066] . Its measured IC50 is ≤ 300 nM

Query Oc1ccccc1-c1nc(N[C@H]2CCNC2)c2ccc(-c3ccccc3)cc2n1 [Compound A-020] yields IC50 of 300 to 3000 nM

molecule Oc1ccccc1-c1nc(N[C@H]2CCN(Cc3ccccc3)C2)c2ccccc2n1 [Compound A-011] , IC50 observed: 3000 to 30000 nM

Lookup result for CC(C)N(C)C(=O)[C@H]1C[C@H](Nc2nc(-c3ccccc3O)nc3ccccc23)CN1 [Compound A-048] ; measured IC50: ≤ 300 nM

Recorded result, CN1CCC(Nc2nc(-c3ccccc3O)nc3ccccc23)CC1 [Compound A-003] , IC50: 300 to 3000 nM

###

target: CHK2 (Homo sapiens); construct: made in house; assay: CHK2 kinase activity assay (DELFIA, phosphorylation of a CDC25C peptide); format: biochemical; conditions: first set of tested compounds; ATP 30 μM, CHK2 1 nM; read-out: IC50, inhibition of CHK2 kinase activity in vitro
MEASURED ATTRIBUTE: IC50

Below: 8 molecules and their reported IC50.
MOLECULE	IC50
Oc1ccccc1-c1nc(N[C@H]2CCNC2)c2cc(Br)ccc2n1	< 3 µM
NC1CCC(Nc2nc(-c3ccccc3O)nc3ccccc23)CC1 (stereo not drawn)	3 to 30 µM
O=C(NCc1ccccc1)[C@H]1C[C@H](Nc2nc(-c3ccccc3O)nc3ccccc23)CN1	< 3 µM
Oc1ccccc1-c1nc(N[C@H]2CCNC2)c2cc(-c3cn[nH]c3)ccc2n1	< 3 µM
Oc1ccccc1-c1nccc(N[C@H]2CCNC2)n1	3 to 30 µM
COC(=O)c1ccc(O)c(-c2nc(N[C@H]3CCNC3)c3ccccc3n2)c1	< 3 µM
CN(c1nc(-c2cc(Cl)ccc2O)nc2ccccc12)[C@H]1CCNC1	< 3 µM
O=C([C@H]1C[C@H](Nc2nc(-c3ccccc3O)nc3ccccc23)CN1)N1CCCC1	< 3 µM

For the next question, use this molecule.
Looking up Oc1ccccc1-c1nc(N[C@H]2CCNC2)c2cc(-c3ccc(CN4CCOCC4)cc3)ccc2n1 , I see its IC50 listed as < 3 µM

###

# IC50 values compiled below
target: CHK2 (Homo sapiens); construct: made in house; experiment: CHK2 kinase activity assay (DELFIA, phosphorylation of a CDC25C peptide); assay type: biochemical; conditions: following further studies; ATP 30 μM, CHK2 1 nM; read-out: IC50, inhibition of CHK2 kinase activity in vitro

Below, each entry is followed by its recorded IC50 result.
MOLECULE	MEASURED ATTRIBUTE	ASSAY VALUE
COc1ccccc1[C@@H]1CNC[C@H]1Nc1nc(-c2cc(F)ccc2O)nc2ccccc12 (relative stereo)	IC50	300 to 3000 nM
Oc1ccc(F)cc1-c1nc(N[C@H]2CCNC2)c2ccc(-c3cn[nH]c3)cc2n1	IC50	≤ 300 nM
O=C([C@H]1C[C@H](Nc2nc(-c3ccccc3O)nc3ccccc23)CN1)N1CCCC1	IC50	≤ 300 nM
COC(=O)[C@H]1C[C@H](Nc2nc(-c3cc(Cl)ccc3O)nc3ccccc23)CN1	IC50	≤ 300 nM
Oc1ccc(F)cc1-c1nc(NC2CCCNCC2)c2ccccc2n1 (centres unmarked)	IC50	≤ 300 nM
O=C(O)[C@@H]1CNC[C@H]1Nc1nc(-c2cc(F)ccc2O)nc2ccccc12 (relative stereo)	IC50	300 to 3000 nM
COC/C=C/c1ccc2c(N[C@H]3CCNC3)nc(-c3ccccc3O)nc2c1	IC50	≤ 300 nM

The molecule listed as CC(C)(O)CCc1ccc2c(N[C@H]3CCNC3)nc(-c3cc(F)ccc3O)nc2c1 has a reported IC50 of ≤ 300 nM
